Source of measurements: the supplement of paper PMC11208160

test-details: recombinant UMI read abundance after kanamycin selection (control-corrected) (log10(CPM+1)); higher = more efficient recombination; extreme values may be limits of the assay; sequences stand for … in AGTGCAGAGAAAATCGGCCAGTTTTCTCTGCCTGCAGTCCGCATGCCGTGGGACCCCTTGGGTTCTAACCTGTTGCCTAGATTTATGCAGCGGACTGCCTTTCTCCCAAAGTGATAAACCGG…AGGTTGGTTTCACT; site = the 11-nt donor
# Lookup of reported recombinant UMI read abundance (log10) keyed by entry

# record-sequence, recombinant UMI read abundance (log10)
data = [
    ("TAGCTTGCATGGACCGGTTTTCCCGGTAATCCGTATTTGAA (site TAGCTAGCTTT)", 0.0193),
    ("TGTACCCCATGGACCGGTTTTCCCGGTAATCCGTATTTGTA (site TGTTCCCCTTA)", 0.00713),
    ("CAAACGCCATGGACCGGTTTTCCCGGTAATCCGTATTTGTG (site CAACCGCCTCA)", 0.033),
    ("GTAGCTACATGGACCGGTTTTCCCGGTAATCCGTATTTGAC (site GTAGCTACTGT)", 2.4),
    ("TAGAATACATGGACCGGTTTTCCCGGTAATCCGTATTTGCA (site TAGGATACTTG)", 1.71),
    ("GGGCCACCATGGACCGGTTTTCCCGGTAATCCGTATTTGCA (site GGGTCACCTTG)", 0.00812),
    ("TGGCCGGCATGGACCGGTTTTCCCGGTAATCCGTATTTGAC (site TGGCCGGCTGC)", 0),
    ("CTGAATCCATGGACCGGTTTTCCCGGTAATCCGTATTTGTT (site CCGAATCCTAA)", 0),
    ("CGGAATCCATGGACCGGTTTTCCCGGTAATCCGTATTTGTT (site CATAATCCTAA)", 0),
    ("GTTAGAACATGGACCGGTTTTCCCGGTAATCCGTATTTGGC (site GTTAGTACTGC)", 0),
    ("AGGGCACCATGGACCGGTTTTCCCGGTAATCCGTATTTGCA (site CGGGCACCTTG)", 0),
    ("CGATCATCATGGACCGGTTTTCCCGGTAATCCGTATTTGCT (site ACATCATCTAG)", 1.28),
    ("ACGACCACATGGACCGGTTTTCCCGGTAATCCGTATTTGTT (site ACGACCACTAA)", 1.29),
    ("TACGATGCATGGACCGGTTTTCCCGGTAATCCGTATTTGCT (site TACGATGCTAG)", 1.98),
    ("ATAAAGGCATGGACCGGTTTTCCCGGTAATCCGTATTTGCT (site AGAAAGGCTAG)", 0.349),
]

###

test-details: recombinant barcode read abundance after kanamycin selection (control-corrected) (log10(CPM+1)); higher = more efficient recombination; sequences stand for … in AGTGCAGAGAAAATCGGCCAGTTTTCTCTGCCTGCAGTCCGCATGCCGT…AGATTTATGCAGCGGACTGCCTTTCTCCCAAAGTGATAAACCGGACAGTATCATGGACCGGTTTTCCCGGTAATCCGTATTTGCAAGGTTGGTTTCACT; site = the 11-nt target
result-type: recombinant barcode read abundance (log10)

# record-sequence, observed
rows = [
    ("GATGTGACTTGGGTTCTAACCTGTTGCCT (site GATGCGACTCG)", 0.182),
    ("CGATCTCCTTGGGTTCTAACCTGTTGCAC (site ACTCACTCTAG)", 0.0376),
    ("ATGATACCTTGGGTTCTAACCTGTTGCCT (site ATGATACCTAG)", 1.84),
    ("AAGTACACTTGGGTTCTAACCTGTTGCTG (site AAGTACACTCA)", 2.75),
    ("GAGTGCCCTTGGGTTCTAACCTGTTGCTT (site GAGTGCCCTAA)", 0.78),
    ("TCCTACCCTTGGGTTCTAACCTGTTGCCT (site TTCTACCCTAG)", 0.271),
    ("TCACGTCCTTGGGTTCTAACCTGTTGCAT (site TCACGTCCTAA)", 0.0411),
]

###

test-details: recombinant UMI read abundance after kanamycin selection (control-corrected) (log10(CPM+1)); higher = more efficient recombination; extreme values may be limits of the assay; sequences stand for … in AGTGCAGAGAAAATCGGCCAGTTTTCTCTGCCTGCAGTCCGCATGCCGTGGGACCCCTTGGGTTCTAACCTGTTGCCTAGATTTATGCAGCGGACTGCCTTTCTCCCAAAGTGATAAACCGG…AGGTTGGTTTCACT; site = the 11-nt donor

# record-sequence, recombinant UMI read abundance (log10)
data = [
    ("TATTGAGCATGGACCGGTTTTCCCGGTAATCCGTATTTGGG (site TAATGAGCTCC)", 0.0665),
    ("CCTAAATCATGGACCGGTTTTCCCGGTAATCCGTATTTGCA (site CCTAAATCTTG)", 0),
    ("CGTTTAGCATGGACCGGTTTTCCCGGTAATCCGTATTTGCT (site CGTTTTGCTAG)", 0),
]

###

test-details: recombinant barcode read abundance after kanamycin selection (control-corrected) (log10(CPM+1)); higher = more efficient recombination; sequences stand for … in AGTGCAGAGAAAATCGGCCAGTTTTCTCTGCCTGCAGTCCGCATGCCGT…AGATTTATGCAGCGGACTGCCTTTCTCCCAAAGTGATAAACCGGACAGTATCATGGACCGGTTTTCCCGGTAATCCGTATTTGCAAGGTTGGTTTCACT; site = the 11-nt target
result-type: recombinant barcode read abundance (log10)

# record-sequence, observed
measured = [
    ("CACTTAGCTTGGGTTCTAACCTGTTGCCT (site CACTTACCTAG)", 0.181),
    ("TTAGTCCCTTGGGTTCTAACCTGTTGCCG (site CTAGTCCCTCG)", 1.09),
    ("ACAAGAGCTTGGGTTCTAACCTGTTGCCT (site ACCAGAGCTAG)", 0.266),
    ("AGGGAGACTTGGGTTCTAACCTGTTGCCA (site AGGGAGACTTG)", 2.49),
    ("TACTGCTCTTGGGTTCTAACCTGTTGCTT (site TACAGCTCTAA)", 0.0305),
    ("GTGTGTCCTTGGGTTCTAACCTGTTGCAT (site GTGTATCCTAT)", 0.381),
    ("GACTCGACTTGGGTTCTAACCTGTTGCTT (site GACTCGACTAA)", 0.395),
    ("ATTTGTACTTGGGTTCTAACCTGTTGCCT (site ATTTGTACTAG)", 0.293),
    ("ATGGTGACTTGGGTTCTAACCTGTTGCCT (site ATGGTGCCTAG)", 0.296),
    ("GACGCCTCTTGGGTTCTAACCTGTTGCGC (site GACGCCTCTGC)", 2.25),
    ("TGGATCACTTGGGTTCTAACCTGTTGCCT (site TGGAACACTAG)", 0.0491),
    ("GCTAACCCTTGGGTTCTAACCTGTTGCCT (site ACTAAACCTAG)", 0.5),
    ("TATAGAACTTGGGTTCTAACCTGTTGCCT (site TATACAACTAG)", 0.0987),
]

###

test-details: recombinant barcode read abundance after kanamycin selection (control-corrected) (log10(CPM+1)); higher = more efficient recombination; sequences stand for … in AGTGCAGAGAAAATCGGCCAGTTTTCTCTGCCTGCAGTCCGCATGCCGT…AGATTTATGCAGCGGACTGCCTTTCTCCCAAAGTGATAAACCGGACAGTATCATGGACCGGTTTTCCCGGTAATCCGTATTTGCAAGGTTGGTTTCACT; site = the 11-nt target
Classify by recombinant barcode read abundance (log10). Ranges: 0: < 0.1; 1: ≥ 0.1 and < 0.6; 2: ≥ 0.6

# record-sequence, class-name
records = [
    ("AATACCTCTTGGGTTCTAACCTGTTGCCT (site AATACCTCTAG)", 2),
    ("TCCCGTCCTTGGGTTCTAACCTGTTGCCT (site TCCCGTCCTAG)", 2),
    ("GGCAGTTCTTGGGTTCTAACCTGTTGCTT (site GGCAGATCTAA)", 0),
    ("GGGATCCCTTGGGTTCTAACCTGTTGCGG (site CTCGAATCTAA)", 0),
    ("ACTAACACTTGGGTTCTAACCTGTTGCCT (site TCTAACACTAG)", 1),
    ("ATCGTTCCTTGGGTTCTAACCTGTTGCGT (site ATCGTTCCTAC)", 1),
    ("TGCGGAGCTTGGGTTCTAACCTGTTGCGG (site AACGGAGCTCC)", 1),
    ("CGCAGCCCTTGGGTTCTAACCTGTTGCAT (site CGGAGCCCTAT)", 0),
    ("CAGGTGCCTTGGGTTCTAACCTGTTGCCT (site CAGGTGCCTAG)", 2),
    ("CTGGCAGCTTGGGTTCTAACCTGTTGCCT (site CTGGCAGCTAG)", 1),
    ("TGTGCCTCTTGGGTTCTAACCTGTTGCCT (site TGTCCCTCTAG)", 0),
    ("TATCTGACTTGGGTTCTAACCTGTTGCCT (site TATCAGACTTG)", 0),
    ("GCACTCTCTTGGGTTCTAACCTGTTGCCT (site GCACACTCTAG)", 0),
    ("TGAGTACCTTGGGTTCTAACCTGTTGCTT (site TGAGTACCTAA)", 2),
    ("TAGTACTCTTGGGTTCTAACCTGTTGCTA (site TAGTACTCTCA)", 0),
    ("AGATGGACTTGGGTTCTAACCTGTTGCAG (site AGATGGACTCT)", 2),
    ("GAGCCACCTTGGGTTCTAACCTGTTGCCT (site CAGCCACCTAG)", 1),
    ("TTCCAAACTTGGGTTCTAACCTGTTGCGG (site TTCCAAACTCC)", 2),
    ("GAGGCTACTTGGGTTCTAACCTGTTGCAT (site ACAAGGGCTCA)", 0),
    ("GGTAAGACTTGGGTTCTAACCTGTTGCGG (site GGTAAGACTCC)", 2),
    ("CTTCGTCCTTGGGTTCTAACCTGTTGCCT (site CTTCGTCCTAT)", 0),
    ("TAGTCCTCTTGGGTTCTAACCTGTTGCTG (site TAGTCCTCTCA)", 2),
    ("ATCAACCCTTGGGTTCTAACCTGTTGCCA (site ATCAACCCTTG)", 2),
    ("TAGGATGCTTGGGTTCTAACCTGTTGCGT (site TAGGATTCTAC)", 1),
    ("AGTTACACTTGGGTTCTAACCTGTTGCCT (site AGTTACACTAG)", 2),
    ("AACGTGTCTTGGGTTCTAACCTGTTGCCT (site AATGTGTCTAG)", 1),
    ("CGGGCAGCTTGGGTTCTAACCTGTTGCCT (site CGAGCAGCTAG)", 0),
    ("CGACCGACTTGGGTTCTAACCTGTTGCAG (site CGATCGACTCT)", 1),
    ("TCGCAGACTTGGGTTCTAACCTGTTGCCT (site CCGCAGACTTG)", 1),
    ("GAAGGGACTTGGGTTCTAACCTGTTGCCT (site GTAGGGACTAG)", 2),
    ("CTATTTACTTGGGTTCTAACCTGTTGCCT (site CTATTTACTAG)", 1),
    ("GGACACTCTTGGGTTCTAACCTGTTGCTA (site GGACACTCTAG)", 2),
    ("CTTCGTCCTTGGGTTCTAACCTGTTGCTT (site CTTCGTCCTAG)", 0),
]
